TARGET_DESC: Monoamine transporters; serotonin & dopamine (Homo sapiens) (UniProt P31645+Q01959)
Sequence (P31645 whole entry, looked up): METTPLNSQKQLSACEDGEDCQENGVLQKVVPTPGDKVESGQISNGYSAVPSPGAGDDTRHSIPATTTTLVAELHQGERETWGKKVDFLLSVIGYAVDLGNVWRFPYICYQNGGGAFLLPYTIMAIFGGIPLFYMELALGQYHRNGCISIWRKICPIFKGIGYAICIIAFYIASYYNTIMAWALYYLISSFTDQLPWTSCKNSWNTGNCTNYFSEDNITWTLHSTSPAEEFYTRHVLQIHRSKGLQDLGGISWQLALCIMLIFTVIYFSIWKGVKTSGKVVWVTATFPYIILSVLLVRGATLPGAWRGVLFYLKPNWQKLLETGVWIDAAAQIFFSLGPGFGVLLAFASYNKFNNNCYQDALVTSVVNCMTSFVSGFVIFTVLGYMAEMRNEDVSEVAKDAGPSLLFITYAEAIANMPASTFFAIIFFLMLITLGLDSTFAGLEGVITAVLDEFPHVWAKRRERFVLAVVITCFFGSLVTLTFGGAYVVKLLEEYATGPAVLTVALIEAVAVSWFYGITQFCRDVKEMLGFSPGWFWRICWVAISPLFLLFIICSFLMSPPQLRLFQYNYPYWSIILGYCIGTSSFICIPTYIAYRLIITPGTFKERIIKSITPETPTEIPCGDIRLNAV
Sequence (Q01959 whole entry, looked up): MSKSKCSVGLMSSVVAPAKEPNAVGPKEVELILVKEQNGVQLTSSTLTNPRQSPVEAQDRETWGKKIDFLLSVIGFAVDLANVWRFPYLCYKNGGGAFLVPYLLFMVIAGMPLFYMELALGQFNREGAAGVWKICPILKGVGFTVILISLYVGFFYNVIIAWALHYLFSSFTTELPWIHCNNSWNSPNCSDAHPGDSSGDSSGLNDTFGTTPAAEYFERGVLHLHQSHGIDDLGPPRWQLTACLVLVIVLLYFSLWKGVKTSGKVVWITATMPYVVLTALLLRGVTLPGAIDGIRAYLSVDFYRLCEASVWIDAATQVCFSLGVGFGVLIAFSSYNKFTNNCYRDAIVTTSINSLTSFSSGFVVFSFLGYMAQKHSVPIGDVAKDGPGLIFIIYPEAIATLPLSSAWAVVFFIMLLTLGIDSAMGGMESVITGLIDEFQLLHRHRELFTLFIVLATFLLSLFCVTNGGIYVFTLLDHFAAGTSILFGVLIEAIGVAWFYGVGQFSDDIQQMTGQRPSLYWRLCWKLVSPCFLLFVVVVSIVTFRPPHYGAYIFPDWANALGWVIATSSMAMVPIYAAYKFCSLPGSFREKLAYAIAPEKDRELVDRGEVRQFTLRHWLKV
EXPERIMENT_SUMMARY: Selectivity ratio as ratio of IC50 value against SERT to that of DAT
Format: protein assay
Label key: Satisfied means Ratio under 20; Not satisfied means Ratio of 20 or more.

> print(dat)
                                    molecule    class.label
 1  Oc1ccc(C2(O)c3ccccc3C3=NCCCN32)cc1 (stereo not given)      Satisfied
 2  COc1ccc(C2(O)c3ccccc3C3=NCCCN32)cc1 (stereo not given)      Satisfied
 3  OC1(c2ccc(Cl)cc2)c2cccc(F)c2C2=NCCN21 (stereo not given)      Satisfied
 4  OC1(c2ccccc2)c2ccccc2C2=NCCN21 (stereo not given)      Satisfied
 5  OC1(c2ccc3c(c2)OCO3)c2ccccc2C2=NCCCN21 (stereo not given)      Satisfied
 6  OC1(c2ccc(Cl)cc2)c2cc(Cl)c(Cl)cc2C2=NCCN21 (stereo not given)  Not satisfied
 7  COc1ccc2c(c1)C(O)(c1ccc(Cl)cc1)N1CCN=C21 (stereo not given)  Not satisfied
 8  OC1(c2ccc(Cl)cc2)c2ccccc2C2=NCCCN21 (stereo not given)  Not satisfied
 9  COc1cccc2c1C1=NCCN1C2(O)c1ccc(Cl)cc1 (stereo not given)  Not satisfied
10  COc1cccc2c1C(O)(c1ccc(Cl)cc1)N1CCN=C21 (stereo not given)  Not satisfied
